# Tested on: seven HIV-1 variants selected in vitro with SQV, APV, LPV, IDV, NFV, ATV, TPV
# Test description: microbe, parasite or virus in culture
# Assay type: cell-based
# Setup conditions: Human immunodeficiency virus 1, read-out: IC50 values, range over variants
Result type: IC50

# input compound: CC(C)CN(C[C@@H](O)[C@H](Cc1ccccc1)NC(=O)O[C@H]1C2CO[C@H]3OCC1C3C2)S(=O)(=O)c1ccc2nc(NC3CC3)sc2c1 (stereo partly shown) ; wanted: its IC50 0.0026 to 0.27 nM

These data points were gathered from paper PMC5605781.
